Experiment: protein stability index of a GFP-peptide fusion (yeast GPS) (PSI 1-4); higher = more stable; sorted into four equal gates, so the index is relative within each strain
Conditions: pdr5∆
Kind request: treat 3 as inclusive, so protein stability index at 3 or higher is 1.0, anything lower is 0.0.

Asked: Hi, just wondering whether LNEYKRETLVKTWEKVT [SMC2] shows protein stability index of 3 or higher.
Given back: 0.0

Asked: Hi, just wondering whether FSEEKAEEFDFNVPVVS [YAR002W/NUP60] shows protein stability index of 3 or higher.
Given back: 0.0

Asked: Hi, just wondering whether EEAGEEEAKEEVTEEQA [RPS0A] shows protein stability index of 3 or higher.
Given back: 1.0

Asked: Hi, just wondering whether LAAIVSTVIEEFTLFMD [YGL172W/NUP49] shows protein stability index of 3 or higher.
Given back: 0.0

Asked: Hi, just wondering whether DISLKADLERFFLSIYF [YJL039C/NUP192] shows protein stability index of 3 or higher.
Given back: 0.0

Asked: Hi, just wondering whether NRRGMLALSGTSASNTS [SNF5] shows protein stability index of 3 or higher.
Given back: 1.0

Asked: Hi, just wondering whether EETNVDIGVLEEYARRL [SMC4] shows protein stability index of 3 or higher.
Given back: 1.0

Asked: Hi, just wondering whether LKYYQDLKNTRMKSITS [SNF5] shows protein stability index of 3 or higher.
Given back: 0.0

Asked: Hi, just wondering whether ATFTSIELTSYESIATY [RPN7] shows protein stability index of 3 or higher.
Given back: 0.0

Asked: Hi, just wondering whether EGKYIVDVAKDINVKDL [RPT6] shows protein stability index of 3 or higher.
Given back: 1.0

Asked: Hi, just wondering whether FTKNEEKLLKELENNEF [ITC1] shows protein stability index of 3 or higher.
Given back: 0.0

Asked: Hi, just wondering whether QLELRQLNASISLIPEL [RRI2] shows protein stability index of 3 or higher.
Given back: 0.0

Asked: Hi, just wondering whether QSVEEKVLEMKNLKDTA [YIL149C/MLP2] shows protein stability index of 3 or higher.
Given back: 0.0

Asked: Hi, just wondering whether KKNIQKAKSNQTQREKA [IRR1] shows protein stability index of 3 or higher.
Given back: 0.0

Asked: Hi, just wondering whether QEYAIEMKIGSIESKLE [SMC1] shows protein stability index of 3 or higher.
Given back: 1.0

Asked: Hi, just wondering whether RLNTVTRVHQLMLEDAV [MCD1] shows protein stability index of 3 or higher.
Given back: 0.0

Asked: Hi, just wondering whether VLSPDSNIMSDSKKIKV [GAL11] shows protein stability index of 3 or higher.
Given back: 0.0

Asked: Hi, just wondering whether QEGMNECPGHFGHIDLA [RPO21] shows protein stability index of 3 or higher.
Given back: 1.0

Asked: Hi, just wondering whether SIAEEIPIAIVLKACGI [RET1] shows protein stability index of 3 or higher.
Given back: 0.0

Asked: Hi, just wondering whether FTRIFLPIYDSLMSSQN [SIR3] shows protein stability index of 3 or higher.
Given back: 0.0

Asked: Hi, just wondering whether TEELQTQYATSQKTKTI [SMC2] shows protein stability index of 3 or higher.
Given back: 1.0

Asked: Hi, just wondering whether NAVSFDTTFSDFKEVED [SRB4] shows protein stability index of 3 or higher.
Given back: 0.0

Asked: Hi, just wondering whether HLRVRVHPFHVLRINKM [RPL10] shows protein stability index of 3 or higher.
Given back: 0.0

Asked: Hi, just wondering whether SELQPQNRSLQEHNIQD [SNF2] shows protein stability index of 3 or higher.
Given back: 1.0

Asked: Hi, just wondering whether AAKLKQTENDLKDIEAR [RPT1] shows protein stability index of 3 or higher.
Given back: 0.0

Asked: Hi, just wondering whether RVKVHFDQAGKKVSRRN [RPL13A] shows protein stability index of 3 or higher.
Given back: 1.0

The measurements presented in this section are drawn from the supplement of paper PMC9732359.
